Catalogue of DC50 values
- Experimental System: BCL6 (Homo sapiens)
- Construct: endogenous in cells; host or cells: T47D breast cancer epithelial cells
- Run Description: Immunofluorescence protocol for high content imaging of BCL6 (degradation) in T47D cells, 3 days compound treatment
- Format: cell-based
- Measurement Context: read-out: Mean DC50 (nM)* category

The molecule CNC(=O)COc1cc2cc(Nc3nc(N4CCC(O[C@H]5C[C@H](N6CCC7(CCN(c8ccc9c(c8)C(=O)N(C8CCC(=O)NC8=O)C9=O)CC7)CC6)C5)CC4)ncc3Cl)ccc2n(C(C)C)c1=O (stereo partly shown) , when measured on BCL6 (Homo sapiens), yielded DC50 of < 10 nM

// molecule CNC(=O)COc1cc2cc(Nc3nc(N4CCC(CN5CCC6(CC5)CCN6c5ccc6c(c5)CN(C5CCC(=O)NC5=O)C6=O)CC4)ncc3Cl)ccc2n(C(C)C)c1=O (stereo not shown) , assay BCL6 (Homo sapiens), DC50 value: < 10 nM

Field DC50 (BCL6 (Homo sapiens)), entry CNC(=O)COc1cc2cc(Nc3nc(N4CCC(O[C@H]5C[C@H](N6CCN(c7ccc8c(c7)C(=O)N(C7CCC(=O)NC7=O)C8=O)[C@@H](C)C6)C5)CC4)ncc3Cl)ccc2n(C(C)C)c1=O (stereo partly shown) : < 10 nM

Observed DC50, BCL6 (Homo sapiens), CNC(=O)COc1cc2cc(Nc3nc(N4CCC(OC5CCC6(CC5)CN(c5ccc7c(c5Cl)CN(C5CCC(=O)NC5=O)C7=O)C6)CC4)ncc3Cl)ccc2n(C(C)C)c1=O (stereo not shown) : < 10 nM

Record CNC(=O)COc1cc2c(F)c(Nc3cc(N4CCC(F)(CN5CCC6(CC5)CN(c5ccc7c(c5)CN(C5CCC(=O)NC5=O)C7=O)C6)CC4)ncc3Cl)ccc2n(C(C)C)c1=O (stereo not shown) / BCL6 (Homo sapiens), DC50 recorded as < 10 nM

DC50 on BCL6 (Homo sapiens) for CNC(=O)COc1cc2cc(Nc3nc(N4CCC(O[C@H]5C[C@H](N6CCN(c7ccc8c(c7Cl)C(=O)N(C7CCC(=O)NC7=O)C8=O)CC6)C5)CC4)ncc3Cl)ccc2n(C(C)C)c1=O (stereo partly shown) is 10 to 50 nM

***
Record for `CNC(=O)COc1cc2cc(Nc3nc(N4CCC(O[C@H]5C[C@H](N6CCN(c7ccc8c(c7F)CN([C@H]7CCC(=O)NC7=O)C8=O)[C@H](C)C6)C5)CC4)ncc3Cl)ccc2n(C(C)C)c1=O` under target or system BCL6 (Homo sapiens): DC50 reported as < 10 nM

DC50 for BCL6 (Homo sapiens) with input CNC(=O)COc1cc2cc(Nc3nc(N4CCC(OC5CCC6(CC5)CN(c5c(OC)ccc7c5CN(C5CCC(=O)NC5=O)C7=O)C6)CC4)ncc3Cl)ccc2n(C(C)C)c1=O (stereo not shown) equals < 10 nM

Bench note, BCL6 (Homo sapiens): CNC(=O)COc1cc2cc(Nc3nc(N4CCN(CC5CCN(c6c(F)ccc7c6CN(C6CCC(=O)NC6=O)C7=O)CC5)CC4)ncc3Cl)ccc2n(C(C)C)c1=O (stereo not shown) , DC50 reads < 10 nM

---

- Experimental System: BCL6 (Homo sapiens, UniProt P41182)
- Construct: endogenous in cells; host or cells: T47D breast cancer epithelial cells
- Run Description: Immunofluorescence protocol for high content imaging of BCL6 (degradation) in T47D cells, 3 days compound treatment
- Format: cell-based
- Measurement Context: read-out: Mean DC50 (nM)* category
Outcome Measure: DC50

Recorded DC50, per entry:
Summary for this compound, CNC(=O)COc1cc2cc(Nc3nc(N4CCC(O[C@H]5C[C@H](N6CCC(c7cc(F)c8c(c7)C(=O)N(C7CCC(=O)NC7=O)C8)C(F)C6)C5)CC4)ncc3Cl)ccc2n(C(C)C)c1=O (some centres unmarked) [Compound 281] : DC50 is 10 to 50 nM

The recorded DC50 for entry CNC(=O)COc1cc2cc(Nc3nc(N4CCC(N5CCC6(C5)CN(C5CCN(c7ccc8c(c7)CN(C7CCC(=O)NC7=O)C8=O)CC5)C6)CC4)ncc3Cl)ccc2n(C(C)C)c1=O (centres unmarked) [Compound 235] equals < 10 nM

Record CNC(=O)COc1cc2cc(Nc3cc(N4CCC(O[C@H]5C[C@H](N6CCC(c7ccc8c(c7F)CN(C7CCC(=O)NC7=O)C8=O)CC6)C5)CC4)ncc3Cl)ccc2n(C(C)C)c1=O (some centres unmarked) [Compound 258] , field DC50: < 10 nM

Memo: CNC(=O)COc1cc2cc(Nc3cc(N4CCC(CN5CCC6(CC5)CN(c5ccc7c(c5OC)CN(C5CCC(=O)NC5=O)C7=O)C6(C)C)CC4)ncc3Cl)ccc2n(C(C)C)c1=O (centres unmarked) [Compound 230] , reported DC50: < 10 nM

Now for the compound whose DC50 we want.
Just so you know, measured DC50 for CNC(=O)COc1cc2cc(Nc3nc(N4CCC(O[C@H]5C[C@H](N6CC7CCC(C6)N7c6ccc7c(c6)C(=O)N(C6CCC(=O)NC6=O)C7=O)C5)CC4)ncc3Cl)ccc2n(C(C)C)c1=O (some centres unmarked) [Compound 370] came out at 10 to 50 nM
